Tested on: HSkMC
Experiment: cytotoxicity call (relative viability < 0.9)
Conditions: 10 µM
Hit rate of the full screen: of about 39,000 compounds, about 1,500 (3.8%) were called active. What follows is part of a selection rich in actives, with near analogues and random picks from the rest.
Classes used: Y (active), N (inactive)

1) COc1ccc([Si](C)(C)[C@@H]2[C@@H](CC(=O)N3Cc4ccccc4C[C@H]3CO)O[C@]3(C(=O)N(Cc4ccc(I)cc4)c4ccccc43)[C@H]2C)cc1 = N
2) COc1ccc(C#Cc2ccc3c(c2)[C@@]2(C(=O)N3C(=O)N[C@@H](C)c3ccccc3)[C@H](c3ccc(OCCO)cc3)N3[C@H](c4ccccc4)[C@H](c4ccccc4)OC(=O)[C@H]3[C@@H]2C(=O)O)cc1 = Y
3) O=C1O[C@H](c2ccccc2)[C@H](c2ccccc2)N2[C@H]1[C@@H](C(=O)O)[C@]1(C(=O)Nc3ccc(C#CC4=CCCCC4)cc31)[C@H]2c1ccccc1OCCO = N
4) Cn1cnc(CCNC(=O)C[C@H]2CC[C@H]3[C@@H](COC[C@H](O)CN3C(=O)Nc3ccc(Cl)cc3)O2)c1 = N
5) COCCOC(=O)N1C(=O)[C@@]2(c3cc(C#Cc4ccc(OC)cc4)ccc31)[C@H](c1ccc(OCCO)cc1)N1[C@H](c3ccccc3)[C@H](c3ccccc3)OC(=O)[C@H]1[C@@H]2C(N)=O = N
6) NC(=O)[C@H]1[C@@H]2C(=O)O[C@@H](c3ccccc3)[C@@H](c3ccccc3)N2[C@@H](c2ccccc2OCCO)[C@]12C(=O)Nc1ccc(C#CC3=CCCCC3)cc12 = Y
7) COc1ccc([Si](C)(C)[C@@H]2[C@@H](CC(=O)N3Cc4ccccc4C[C@H]3CO)O[C@]3(C(=O)N(C)c4c(Br)cc(C)cc43)[C@H]2C)cc1 = Y
8) COc1ccc(C#Cc2ccc3c(c2)[C@]2(C(=O)N3)[C@H](C(N)=O)[C@H]3C(=O)O[C@H](c4ccccc4)[C@H](c4ccccc4)N3[C@@H]2c2ccccc2OCCO)cc1 = Y

---

Tested on: HSkMC
Assay: cytotoxicity call (relative viability < 0.9)
Conditions: 10 µM
Among all 39,000 compounds or so, about 1,500 (3.8%) were called active. This is one part of a sample in which actives are shown more often than they occur.
Classes used: active, inactive

1) CNC[C@H]1OCCCC[C@@H](C)Oc2ccc(NS(=O)(=O)c3cn(C)cn3)cc2C(=O)N([C@@H](C)CO)C[C@@H]1C = inactive
2) CC(C)NC(=O)N1Cc2cc(C(=O)NC3Cc4ccccc4C3)nc(-c3cccc(-c4cccnc4)c3)c2[C@H]1CCO = active
3) C[C@H](CO)N1C[C@H](C)[C@@H](CN(C)Cc2ccc(Cl)c(Cl)c2)OCCCC[C@H](C)Oc2ccc(NS(=O)(=O)c3ccccc3)cc2C1=O = inactive
4) CC(C)(C)[S@](=O)N1Cc2cc(C(=O)N[C@@H]3CCN(Cc4ccccc4)C3)nc(-c3cccc(-c4cccnc4)c3)c2[C@@H]1CCO = inactive
5) C[C@@H]1CN([C@H](C)CO)C(=O)c2cc(NS(=O)(=O)c3ccccc3)ccc2O[C@@H](C)CCCCO[C@H]1CN(C)Cc1ccc(Cl)c(Cl)c1 = inactive

---

System: HSkMC (human skeletal muscle cells)
Assay: cytotoxicity call (relative viability < 0.9)
Conditions: 10 µM
The whole screen tested about 39,000 compounds, of which about 1,500 (3.8%) were called active. Many of the other results were omitted from the sample, so actives are more common in it than they were.
Classes used: active, inactive

1. COc1ccccc1S(=O)(=O)N(C)C[C@@H]1Oc2c(NC(=O)Nc3cccc4ccccc34)cccc2C(=O)N([C@@H](C)CO)C[C@H]1C = inactive
2. CCCCCCCCCC[C@@H](O)[C@H]1C=C[C@@H]2C(=O)N(c3ccccc3)C(=O)[C@@H]2N1Nc1ccc([N+](=O)[O-])cc1 = active
3. C[C@@H]1CCCCO[C@@H](CN(C)C(=O)Cc2ccccc2)[C@@H](C)CN([C@@H](C)CO)C(=O)c2cc(NS(=O)(=O)c3ccc(F)cc3)ccc2O1 = inactive
4. C[C@H]1CN([C@@H](C)CO)C(=O)c2cccc(NC(=O)Nc3cccc4ccccc34)c2O[C@@H]1CN(C)S(=O)(=O)c1ccc(Cl)cc1 = inactive
5. C[C@@H]1CCCCO[C@H](CN(C)C(=O)Nc2ccc3c(c2)OCO3)[C@H](C)CN([C@H](C)CO)C(=O)c2cc(NS(=O)(=O)c3ccccc3)ccc2O1 = inactive
6. COc1ccccc1S(=O)(=O)N[C@H]1CC[C@@H](CCNC(=O)C2CC2)O[C@@H]1CO = inactive
7. Nc1cccc(-n2cc(CCC(=O)NO)nn2)c1 = inactive
8. CC/1=C(CCC(=O)O)/C/2=C/c3[nH]c(c(c3CCC(=O)O)C)/C=C/3\N=C(/C=C/4\N=C(\C=C1/N2)C(=C4C)C=C)C(=C3C)C=C = inactive
9. C[C@H](CO)N1C[C@H](C)[C@@H](CN(C)Cc2ccc(Cl)c(Cl)c2)Oc2c(NC(=O)Nc3ccc(C(F)(F)F)cc3)cccc2C1=O = active
10. COc1ccc(S(=O)(=O)N[C@H]2C=C[C@H](CC(=O)NCCc3ccncc3)O[C@H]2CO)cc1 = inactive
11. CN1C(=O)c2cc(NC(=O)C3CCOCC3)ccc2OC[C@@H]2O[C@H](CC(=O)NCc3ccc4c(c3)OCO4)CC[C@@H]21 = inactive
12. C[C@@H]1CN([C@H](C)CO)C(=O)CCCn2nncc2CO[C@@H]1CN(C)C(=O)Nc1cccc(Oc2ccccn2)c1 = inactive
13. C[C@H]1CN([C@@H](C)CO)C(=O)c2cccc(NC(=O)Nc3cccc4ccccc34)c2O[C@@H]1CN(C)S(=O)(=O)c1cccs1 = active
